Assay: Solubility of Tofacitinib citrate in different pH media and water
Type: physicochemical
Settings: 37 °C, pH 1.18, simulated gastric fluid, thermodynamic from solid; 0.1N HCl; final pH observed 1.18; read-out: Solubility @37° C., mg/mL for 6 hours
experimental_endpoint: solubility at 6 h (mg/mL)

1) C[C@@H]1CCN(C(=O)CC#N)C[C@@H]1N(C)c1ncnc2[nH]ccc12.O=C(O)CC(O)(CC(=O)O)C(=O)O [Tofacitinib citrate] ... 27.8

----------
Assay: Solubility of Tofacitinib citrate in different pH media and water
Assay type: physicochemical
Settings: pH 4.5 medium, 37 °C, aqueous buffer, thermodynamic from solid; pH 4.5; final pH observed 4.50; read-out: Solubility @37° C., mg/mL for 6 hours
Procedure: The active substance is a white to off-white solid, slightly soluble in water (2.9 mg/mL) and non-hygroscopic. Tofacitinib contains two chiral centers at C3 and C4. The active substance is the enantiomer with absolute configuration (R) for both the C-3 and the C-4 positions. The overall stereochemistry of tofacitinib is therefore considered as critical and is assured by the quality of the starting materials and the route of synthesis design. Polymorphism has been studied for the active substance. […]
experimental_endpoint: solubility at 6 h (mg/mL)

1) C[C@@H]1CCN(C(=O)CC#N)C[C@@H]1N(C)c1ncnc2[nH]ccc12.O=C(O)CC(O)(CC(=O)O)C(=O)O [Tofacitinib citrate] ... 4.57

All values here come from patent US11844866B2.
